- Target Or System: T1, Cowpea mosaic virus (CPMV) (Cowpea mosaic virus), P03599
- T1 chain 1: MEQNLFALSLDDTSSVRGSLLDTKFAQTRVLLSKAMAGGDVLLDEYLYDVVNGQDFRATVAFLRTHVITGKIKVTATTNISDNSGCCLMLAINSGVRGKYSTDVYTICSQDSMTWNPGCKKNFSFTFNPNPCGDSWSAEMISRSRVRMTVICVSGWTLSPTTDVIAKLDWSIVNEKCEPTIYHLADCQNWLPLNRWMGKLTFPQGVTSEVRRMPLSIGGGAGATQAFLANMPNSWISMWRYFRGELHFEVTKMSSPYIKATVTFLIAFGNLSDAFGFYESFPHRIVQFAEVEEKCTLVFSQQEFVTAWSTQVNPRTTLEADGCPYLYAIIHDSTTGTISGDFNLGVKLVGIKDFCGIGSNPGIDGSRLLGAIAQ
- T1 chain 2: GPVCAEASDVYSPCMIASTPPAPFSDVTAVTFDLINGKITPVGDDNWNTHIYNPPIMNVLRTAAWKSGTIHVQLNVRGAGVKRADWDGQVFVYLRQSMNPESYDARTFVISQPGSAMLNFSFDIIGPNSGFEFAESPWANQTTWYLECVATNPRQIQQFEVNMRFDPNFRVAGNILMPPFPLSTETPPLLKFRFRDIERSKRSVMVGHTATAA
- Assay Summary: competitive ELISA against MPSEF phage (10^9 pfu) on coated CPMV
pIC50: −log10 of the molar value. Primed or numbered codes have the meaning given here. Ends that are not written are not given here. FITC′ = fluorescein isothiocyanate
Entries and their measured pIC50 follow.
Measured Attribute: pIC50

binder="GWRVSEFGGGSK-{FITC′} (not fully specified (residue 12)) [CBP-FITC (N-…/FITC/-C)]" measured_attribute=pIC50 reported_measurement=5.48
binder="GWRVSEFGGGSK-biotin (not fully specified (residue 12)) [CBP-biotin (N-…/biotin/-C)]" measured_attribute=pIC50 reported_measurement=5.94

Where do these numbers come from? They come from patent US20240261429A1.
